target: Orphan methyltransferase M.SssI (Spiroplasma monobiae, UniProt P15840); assay: Inhibition of Spiroplasma sp. MQ-1 M.SssI
Sequence (P15840 whole entry): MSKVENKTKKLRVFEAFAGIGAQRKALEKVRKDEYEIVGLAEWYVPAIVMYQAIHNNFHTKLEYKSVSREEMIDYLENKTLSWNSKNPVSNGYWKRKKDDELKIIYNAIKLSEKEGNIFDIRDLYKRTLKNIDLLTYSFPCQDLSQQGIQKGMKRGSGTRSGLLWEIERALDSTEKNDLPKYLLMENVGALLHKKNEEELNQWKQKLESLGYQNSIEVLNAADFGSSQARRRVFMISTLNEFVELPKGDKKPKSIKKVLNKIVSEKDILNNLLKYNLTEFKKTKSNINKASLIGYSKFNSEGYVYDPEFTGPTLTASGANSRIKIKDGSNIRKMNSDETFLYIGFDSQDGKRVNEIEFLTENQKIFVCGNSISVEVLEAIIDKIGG
pIC50: −log10 of the molar value.

[
  {
    "smiles_record": "O=C(/C=C/c1ccc(O)cc1)CC(=O)/C=C/c1ccc(O)cc1",
    "pIC50": 7.52
  },
  {
    "smiles_record": "COc1cc(/C=C/C(O)=C/C(=O)/C=C/c2ccc(O)cc2)ccc1O",
    "pIC50": 7.52
  }
]
